Values from paper PMC13022283

# experimental target: UniProt:P49961
# Sequence (P49961 whole entry): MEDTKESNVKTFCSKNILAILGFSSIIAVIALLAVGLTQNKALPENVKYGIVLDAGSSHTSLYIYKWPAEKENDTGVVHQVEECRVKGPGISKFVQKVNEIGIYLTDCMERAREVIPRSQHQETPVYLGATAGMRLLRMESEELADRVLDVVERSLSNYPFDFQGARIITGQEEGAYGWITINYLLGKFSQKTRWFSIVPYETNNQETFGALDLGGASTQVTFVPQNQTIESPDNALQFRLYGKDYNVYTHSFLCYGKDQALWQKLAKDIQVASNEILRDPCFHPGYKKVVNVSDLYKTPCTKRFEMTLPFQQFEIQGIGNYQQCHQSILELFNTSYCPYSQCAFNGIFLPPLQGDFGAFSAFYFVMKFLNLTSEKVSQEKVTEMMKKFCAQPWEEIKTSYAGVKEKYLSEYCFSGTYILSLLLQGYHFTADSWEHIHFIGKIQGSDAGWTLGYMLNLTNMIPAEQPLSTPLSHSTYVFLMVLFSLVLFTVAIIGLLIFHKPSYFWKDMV
# assay protocol: h-NTPDase activity assay
# Assay type: biochemical
# experimental parameters: read-out: % Inhibition h-NTPDase1
Kind request: treat 30% as inclusive, so inhibition at 100 µM at 30% or higher is class 1, anything lower is class 0.

compound | discrete label
O=C(NCc1ccc(Cl)cc1Cl)c1ccc2ncccc2c1 [Compound 4j] | class 1
O=C(Nc1ccccn1)c1ccc2ncccc2c1 [Compound 4g, N-(pyridin-2-yl)quinoline-6-carboxamide] | class 1
Cc1ccc(F)cc1NC(=O)c1ccc2ncccc2c1 [Compound 4l] | class 1
O=C(Nc1ccccc1I)c1ccc2ncccc2c1 [Compound 4h, N-(2-iodophenyl)quinoline-6-carboxamide] | class 0
O=C(NCc1ccc(Cl)cc1)c1ccc2ncccc2c1 [Compound 4a] | class 1
COc1ccc(CNC(=O)c2ccc3ncccc3c2)c(OC)c1 [Compound 4i] | class 0
O=C(Nc1ccc(F)cc1F)c1ccc2ncccc2c1 [Compound 4e] | class 1
Cc1ccc(CNC(=O)c2ccc3ncccc3c2)cc1 [Compound 4c] | class 1
O=C(NCc1ccc(F)cc1)c1ccc2ncccc2c1 [Compound 4b] | class 1
O=C(Nc1c(F)cccc1F)c1ccc2ncccc2c1 [Compound 4d] | class 1
O=C(Nc1ccc(I)cc1)c1ccc2ncccc2c1 [Compound 4k, N-(4-Iodophenyl)quinoline-6-carboxamide] | class 1

* * *

A set of compounds tested on h-NPP1 (Homo sapiens), with measured IC50:
parameter measured: IC50 (nM)

compound | experimental target | result value
O=C(NCc1ccc(Cl)cc1Cl)c1ccc2ncccc2c1 | h-NPP1 (Homo sapiens) | 13500
O=C(Nc1ccc(I)cc1)c1ccc2ncccc2c1 [Compound 4k, N-(4-Iodophenyl)quinoline-6-carboxamide] | h-NPP1 (Homo sapiens) | 110
O=C(NCc1ccc(Cl)cc1)c1ccc2ncccc2c1 | h-NPP1 (Homo sapiens) | 230
O=C(Nc1c(F)cccc1F)c1ccc2ncccc2c1 | h-NPP1 (Homo sapiens) | 730

* * *

# experimental target: UniProt O75355
# Sequence (O75355 1-529): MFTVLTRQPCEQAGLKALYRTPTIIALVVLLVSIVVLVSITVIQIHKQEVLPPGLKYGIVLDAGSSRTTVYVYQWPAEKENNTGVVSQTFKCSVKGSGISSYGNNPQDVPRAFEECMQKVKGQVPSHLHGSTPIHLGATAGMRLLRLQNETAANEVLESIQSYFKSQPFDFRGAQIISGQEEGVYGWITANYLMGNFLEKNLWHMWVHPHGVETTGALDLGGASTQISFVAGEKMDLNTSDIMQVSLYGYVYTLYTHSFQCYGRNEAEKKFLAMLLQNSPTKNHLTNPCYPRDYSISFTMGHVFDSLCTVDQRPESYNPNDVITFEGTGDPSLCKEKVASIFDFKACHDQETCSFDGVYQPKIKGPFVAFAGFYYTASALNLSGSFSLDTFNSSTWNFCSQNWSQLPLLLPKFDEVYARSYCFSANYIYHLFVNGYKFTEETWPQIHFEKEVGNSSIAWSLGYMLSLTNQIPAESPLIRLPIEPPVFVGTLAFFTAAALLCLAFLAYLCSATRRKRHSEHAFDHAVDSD
# assay protocol: h-NTPDase activity assay
# Type: biochemical
# experimental parameters: read-out: % Inhibition h-NTPDase3
Recorded measurements of inhibition at 100 µM, one per entry

compound | experimental target | unit spec | inhibition at 100 µM
O=C(Nc1c(F)cccc1F)c1ccc2ncccc2c1 | UniProt O75355 | % | 58.4
O=C(Nc1ccccn1)c1ccc2ncccc2c1 [Compound 4g, N-(pyridin-2-yl)quinoline-6-carboxamide] | UniProt O75355 | % | 81.7
O=C(Nc1ccccc1I)c1ccc2ncccc2c1 [Compound 4h, N-(2-iodophenyl)quinoline-6-carboxamide] | UniProt O75355 | % | 85
O=C(Nc1ccc(I)cc1)c1ccc2ncccc2c1 [Compound 4k, N-(4-Iodophenyl)quinoline-6-carboxamide] | UniProt O75355 | % | 38.5
COc1ccc(CNC(=O)c2ccc3ncccc3c2)c(OC)c1 | UniProt O75355 | % | 25.1
Cc1ccc(F)cc1NC(=O)c1ccc2ncccc2c1 | UniProt O75355 | % | 36.1
O=C(NCc1ccc(F)cc1)c1ccc2ncccc2c1 | UniProt O75355 | % | 67.8
O=C(Nc1ccc(F)cc1F)c1ccc2ncccc2c1 | UniProt O75355 | % | 40.2
O=C(NCc1ccc(Cl)cc1Cl)c1ccc2ncccc2c1 | UniProt O75355 | % | 35.6
O=C(NCc1ccc(Cl)cc1)c1ccc2ncccc2c1 | UniProt O75355 | % | 30.6
Cc1ccc(CNC(=O)c2ccc3ncccc3c2)cc1 | UniProt O75355 | % | 78.4
